Target: SETD2(1434-1711) (Homo sapiens)
Construct: SETD2 (1434-1711) Assay; catalogue N/A
Sequence (Q9BYW2 1434-1711): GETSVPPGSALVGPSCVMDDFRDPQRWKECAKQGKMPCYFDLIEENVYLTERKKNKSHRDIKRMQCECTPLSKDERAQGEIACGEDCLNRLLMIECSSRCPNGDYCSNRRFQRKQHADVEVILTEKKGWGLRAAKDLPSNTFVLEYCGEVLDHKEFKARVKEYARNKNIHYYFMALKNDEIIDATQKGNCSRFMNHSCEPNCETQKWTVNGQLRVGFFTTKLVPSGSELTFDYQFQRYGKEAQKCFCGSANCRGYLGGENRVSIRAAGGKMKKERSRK
Assay: SETD2 (1434-1711) assay
Format: biochemical
Conditions: read-out: SETD2 (1434-1711)
Could you please report measured log10(IC50) for the items listed next?
Kindly note that the scale is log10 and the underlying IC50 is in nM.

Query :: Lab request: please report log10(IC50) under test system SETD2(1434-1711) (Homo sapiens) for Cc1ccc(F)c2cc(C(=O)Nc3cccc(N4CCC(N(CCO)CCO)CC4)c3)[nH]c12
Result :: 1.48

Query :: Given the entry Cc1ccc(F)c2cc(C(=O)NC3CCCC(N4CCN5C(=O)CCCC5C4)C3)[nH]c12 (centres unmarked) [compound 1078] , what log10(IC50) was observed with SETD2(1434-1711) (Homo sapiens)?
Result :: 1.00

Query :: What log10(IC50) appears in the records for this compound with SETD2(1434-1711) (Homo sapiens)? Cc1ccc(F)c2cc(C(=O)Nc3cc(F)cc(N4CCC(N5CCOCC5)C4)c3)[nH]c12 (centres unmarked)
Result :: 0.78

Query :: Can you look up log10(IC50) on SETD2(1434-1711) (Homo sapiens) for Cc1cccc2cc(C(=O)NC(CCN(C)C)c3cccnc3)[nH]c12 (centres unmarked) ?
Result :: 5.09

Query :: API: value(readout= log10(IC50), system= SETD2(1434-1711) (Homo sapiens), query= Cc1ccc(F)c2cc(C(=O)Nc3cccc(N4CCC5(CC4)CNC5)c3)[nH]c12 )
Result :: 1.00

Query :: Form field: log10(IC50) recorded for Cc1ccc(F)c2cc(C(=O)NC3CCCC(N4CCN5C(=O)OCC5C4)C3)[nH]c12 (centres unmarked) [compound 1136] with SETD2(1434-1711) (Homo sapiens) (enter value)
Result :: 2.85

Query :: Reported log10(IC50) for SETD2(1434-1711) (Homo sapiens), given COCC(=O)N1CCN(c2cccc(NC(=O)c3cc4c(F)ccc(C)c4[nH]3)c2)CC1 ?
Result :: 1.60

Query :: Fill in the recorded log10(IC50) for this compound, with SETD2(1434-1711) (Homo sapiens) as test system: Cc1ccc(F)c2cc(C(=O)Nc3cccc(N4CC[C@@H](N(C)C)[C@@H](F)C4)c3)[nH]c12
Result :: 2.00
